Target: T1, human LAG-3-his (human, UniProt P18627 23-422)
T1 construct: range 23-422; also called hLAG-3-his; hLAG-3
T1 sequence: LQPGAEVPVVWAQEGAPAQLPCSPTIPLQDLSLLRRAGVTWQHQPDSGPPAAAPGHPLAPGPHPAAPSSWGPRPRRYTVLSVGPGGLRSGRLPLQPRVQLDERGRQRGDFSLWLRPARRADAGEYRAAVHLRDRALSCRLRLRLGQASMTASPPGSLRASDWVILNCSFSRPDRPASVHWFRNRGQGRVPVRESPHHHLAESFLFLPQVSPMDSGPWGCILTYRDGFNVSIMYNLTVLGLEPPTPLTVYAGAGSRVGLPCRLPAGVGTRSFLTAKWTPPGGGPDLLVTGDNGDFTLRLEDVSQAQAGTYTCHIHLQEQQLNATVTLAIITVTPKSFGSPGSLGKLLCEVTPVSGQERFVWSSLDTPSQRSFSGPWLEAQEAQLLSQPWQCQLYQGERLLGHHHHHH
Test: ELISA on hLAG-3
assay-readout: EC50 (nM)
Please reply with the bare figure in nM and do not write the unit itself.

Answered cases to consult:
1) Ab2318 (antibody, human IgG4 S228P, kappa, V domains shown, human kappa / hIgG4) VH: QVQLVQSGAEVKKPGASVKVSCKASGYTFTDYEMHWVKQAPGQGLEWIGGIDPETEGIAYNQKFRGRATLTADKSTSTAYMELRSLRSDDTAVYYCTNSNYYGGREAWFAYWGQGTLVTVSS VL: DIQMTQSPSSLSASVGDRVTITCRASQDIGSSLNWLQQKPGKAIKRLIYATSSLDSGVPSRFSGSRSGTDFTLTISSLQPEDFATYYCLQYVTSPLTFGGGTKVEIKR | 0.28
2) humanized antibody Ab2325 (antibody, human IgG4 S228P, kappa, V domains shown, LG2317 / LG2348, human kappa / hIgG4) VH: QVQLVQSGAEVKKPGASVKVSCKASGYTFTDYEMHWVKQAPGQGLEWMGGIDPETEGIAYNQKFRGRATMTTDTSTSTAYMELRSLRSDDTAVYYCANSNYYGGREAWFAYWGQGTLVTVSS VL: DIQMTQSPSSLSASVGDRVTITCRASQDIGSSLNWYQQKPGKAPKRLIYATSSLDSGVPSRFSGSRSGSDFTLTISSLQPEDFATYYCLQYVTSPLTFGGGTKVEIKR | 0.142
3) Ab2319 (antibody, human IgG4 S228P, kappa, V domains shown, human kappa / hIgG4) VH: QVQLVQSGAEVKKPGASVKVSCKASGYTFTDYEMHWVKQAPGQGLEWIGGIDPETEGIAYNQKFRGRATMTTDKSTSTAYMELRSLRSDDTAVYYCTNSNYYGGREAWFAYWGQGTLVTVSS VL: DIQMTQSPSSLSASVGDRVTITCRASQDIGSSLNWLQQKPGKAIKRLIYATSSLDSGVPSRFSGSRSGSDYTLTISSLQPEDFATYYCLQYVTSPLTFGGGTKVEIKR | 0.764
4) Ab2316 (antibody, human IgG4 S228P, kappa, V domains shown, human kappa / hIgG4) VH: QVQLVQSGAEVKKPGASVKVSCKASGYTFTDYEMHWVKQAPGQGLEWIGGIDPETEGIAYNQKFRGRATLTADKSTSTAYMELRSLRSDDTAVYYCTNSNYYGGREAWFAYWGQGTLVTVSS VL: DIQMTQSPSSLSASVGDRVTITCRASQDIGSSLNWLQQKPGKAIKRLIYATSSLDSGVPSRFSGSRSGSDFTLTISSLQPEDFATYYCLQYVTSPLTFGGGTKVEIKR | 0.307
5) Ab2320 (antibody, human IgG4 S228P, kappa, V domains shown, human kappa / hIgG4) VH: QVQLVQSGAEVKKPGASVKVSCKASGYTFTDYEMHWVKQAPGQGLEWIGGIDPETEGIAYNQKFRGRATMTTDKSTSTAYMELRSLRSDDTAVYYCTNSNYYGGREAWFAYWGQGTLVTVSS VL: DIQMTQSPSSLSASVGDRVTITCRASQDIGSSLNWLQQKPGKAIKRLIYATSSLDSGVPSRFSGSGSGTDYTLTISSLQPEDFATYYCLQYVTSPLTFGGGTKVEIKR | 1.01

Moving on to another binder below.
In: Indicate the recorded EC50 value for this binder: Ab2315 (antibody, human IgG4 S228P, kappa, V domains shown, LG2315 / LG2343, human kappa / hIgG4) VH: QVQLVQSGAEVKKPGASVKVSCKASGYTFTDYEMHWVKQAPGQGLEWIGGIDPETEGIAYNQKFRGRATLTADKSTSTAYMELRSLRSDDTAVYYCTNSNYYGGREAWFAYWGQGTLVTVSS VL: DIQMTQSPSSLSASVGDRVTITCRASQDIGSSLNWLQQKPGKAIKRLIYATSSLDSGVPSRFSGSGSGTDYTLTISSLQPEDFATYYCLQYVTSPLTFGGGTKVEIKR
Out: 0.181
